# Test system: NKG2A+/NKG2C− NK cells
# Assay notes: NK cell activation markers in NKG2A+/NKG2C- NK cells incubated with peptide and K562 expressing HLA-E (inhibition)
# Format: cell-based, human
# Stated conditions: NKG2A+/NKG2C- NK cells, K562/HLA-E, Trial 2
Where no end group is shown, it is not given here.
The entries below are paired with their reported percentage of CCL3+ NK cells.
Express the result in % but write the number alone.

Input sequence	Assayed system	Assay readout	Endpoint unit	Measurement
VMAPRTLIL [VMAPRTLIL (LIL), positive control peptide, reference compound]	NKG2A+/NKG2C− NK cells	percentage of CCL3+ NK cells	%	14.4

State its percentage of CCL3+ NK cells: ILTDRSLWL [human4, peptide FBXO41 670-678 derived from the human proteome]
56.4

State its percentage of CCL3+ NK cells: VNPGRSLFL [human5, VNPGRSLFL]
71.6

----------
The entries below are paired with their reported Binding of peptide-HLA-E complexes to CD94/NKG2C normalized to a theoretical Rmax.
# Assayed system: CD94/NKG2C (Homo sapiens, UniProt P26717+Q13241)
# Sequence (P26717 94-231 limits assumed): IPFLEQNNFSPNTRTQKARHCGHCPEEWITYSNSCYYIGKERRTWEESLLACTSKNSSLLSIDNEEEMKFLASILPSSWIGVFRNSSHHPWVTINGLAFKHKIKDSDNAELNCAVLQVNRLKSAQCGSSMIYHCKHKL
# Sequence (Q13241 32-179 limits assumed): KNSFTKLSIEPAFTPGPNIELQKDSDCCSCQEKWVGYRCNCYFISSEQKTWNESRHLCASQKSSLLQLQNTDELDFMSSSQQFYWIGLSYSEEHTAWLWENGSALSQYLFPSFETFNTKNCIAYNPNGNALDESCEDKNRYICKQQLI
# Assay notes: Steady-state surface plasmon resonance of peptide-HLA-E complex with CD94/NKG2C
# Assay type: binding
# Stated conditions: steady-state SPR; CD94/NKG2C analyte concentration 0.8 μM
# Procedure: Binding affinity of novel peptides linked to HLA-E was determined using surface plasmon resonance (SPR), a methodology used to study protein-protein interactions (Tables 15-19). […] KD values calculated by Biacore software are reported. Rmax, fit values were calculated by Biacore software. Rmax, theoretical values were calculated using the analyte/ligand mass ratio (0.66) multiplied by the amount of ligand coupled to the chip.
Where no end group is shown, it is not given here.
Respond using a number only.

Input sequence	Measurement
TAPARTMFL [human13, TAPARTMFL]	0.050

For CD94/NKG2C (Homo sapiens, UniProt P26717+Q13241), give Binding of peptide-HLA-E complexes to CD94/NKG2C normalized to a theoretical Rmax of the listed sequence: TGPWRSLWI [human3, TGPWRSLWI]
0.006

For CD94/NKG2C (Homo sapiens, UniProt P26717+Q13241), give Binding of peptide-HLA-E complexes to CD94/NKG2C normalized to a theoretical Rmax of the listed sequence: QMPSRSLLF [human1, QMPSRSLLF]
0.047

For CD94/NKG2C (Homo sapiens, UniProt P26717+Q13241), give Binding of peptide-HLA-E complexes to CD94/NKG2C normalized to a theoretical Rmax of the listed sequence: VNPGRSLFL [human5, VNPGRSLFL]
0.123

For CD94/NKG2C (Homo sapiens, UniProt P26717+Q13241), give Binding of peptide-HLA-E complexes to CD94/NKG2C normalized to a theoretical Rmax of the listed sequence: TLPKRGLFL [human2, TLPKRGLFL]
0.034

----------
# Assayed system: CD94/NKG2A (Homo sapiens, UniProt P26715+Q13241)
# Sequence (P26715 94-233 limits assumed, one chain of several): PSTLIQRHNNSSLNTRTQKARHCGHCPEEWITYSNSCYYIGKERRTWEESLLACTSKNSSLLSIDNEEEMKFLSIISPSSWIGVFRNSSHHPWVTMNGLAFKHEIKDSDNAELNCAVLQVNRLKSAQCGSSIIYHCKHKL
# Assay notes: Steady-state surface plasmon resonance of peptide-HLA-E complex with CD94/NKG2A
# Assay type: binding
# Stated conditions: steady-state SPR; CD94/NKG2A analyte concentration 0.400 μM
Where no end group is shown, it is not given here.
The entries below are paired with their reported Binding of peptide-HLA-E complexes to CD94/NKG2A normalized to a theoretical Rmax.
Respond using a number only.

Consider the following illustrative entries.
Input sequence	Measurement
TLPKRGLFL [human2, TLPKRGLFL]	0.070
TGPWRSLWI [human3, TGPWRSLWI]	0.009
TAPARTMFL [human13, TAPARTMFL]	0.042
QMPSRSLLF [human1, QMPSRSLLF]	0.093

Let us move to another entry and its Binding of peptide-HLA-E complexes to CD94/NKG2A normalized to a theoretical Rmax.
State its Binding of peptide-HLA-E complexes to CD94/NKG2A normalized to a theoretical Rmax: VNPGRSLFL [human5, VNPGRSLFL]
0.181
